experiment_notes: pKa of basic sites / additives
Assay type: physicochemical
test_settings: two basic sites for salt formation; read-out: pKa
metric_name: pKa
Field format: numeric only.

Entry `Cc1cnc(Nc2ccc(OCCN3CCCC3)cc2)nc1Nc1cccc(S(=O)(=O)NC(C)(C)C)c1` has what pKa?
9.3
